TGI values, listed per item
# System: OVCAR-3 ovarian
# Method notes: NCI tumour cell line growth inhibition, 48 h
Parameter measured: TGI

O=C1C(c2ccccc2)=C(c2ccccc2)C(c2ccc(Sc3ccc(C4=C(c5ccccc5)C(=O)C(c5ccccc5)=C4c4ccccc4)cc3)cc2)=C1c1ccccc1 : > 100 µM
CCCCC1(O)CC2CC1C(C)C2(C)C (stereo unspecified) : > 100 µM
Cc1sc2c(c1C)C(c1ccc(Cl)cc1)=N[C@@H](CC(=O)NCCCN1CCN(C)CC1)c1nnc(C)n1-2 : > 100 µM
Cn1c(=O)ccc2c(=O)c3ccccc3oc21 : > 100 µM
COc1ccc(/C=C/C(=O)c2sc(-c3cccnc3)nc2C)cc1 : 88.3 µM
CC1=N[C@@](C)(C2CC3C=CC2C3=O)COC1=O (stereo partly specified) : > 100 µM
CCOC(=O)CN(c1ccccc1)c1nc(=[N+](C)C)ss1 : 2 µM
COc1ccc(NC(=O)c2ccc(NC3=C(Cl)C(=O)N(Cc4ccccc4)C3=O)cc2)c(OC)c1 : 33.2 µM
CN1CCN(Cc2nc3c(s2)CCc2sccc2-3)CC1 : > 100 µM
O=CN1CCC23CC(O)CCC2C1Cc1cc(Oc2nnnn2-c2ccccc2)cc(O)c13 (stereo unspecified) : > 100 µM
CC(C)OP(=O)(OC(C)C)C(=NCCN=C(NNc1ccccc1[N+](=O)[O-])P(=O)(OC(C)C)OC(C)C)NNc1ccccc1[N+](=O)[O-] : > 100 µM
CC(C)(C)c1cc(-c2nc3ccc(N4CCN(CCO)CC4)cc3[nH]2)cc(C(C)(C)C)c1O : > 100 µM
O=C(O)c1cn(C2CC2)c2cc(N3CCN(Cc4c(O)ccc5ccccc45)CC3)c(F)cc2c1=O : 22.6 µM
C/C(=N/O)c1sc(-c2nc(C)c(/C(C)=N\O)s2)nc1C : > 100 µM
CC1=CC(=O)N(n2c(Cc3ccc(Cl)cc3)n[nH]c2=O)C1=O : > 100 µM
NC(=O)c1cc(Br)ccc1NC(=O)/C=C/c1ccccc1 : 4.21 µM
